# Test system: Wnt activity (Sp5-Luc reporter in SW480 cells)
# Protocol description: Screening assay for Wnt activity: Sp5-Luc reporter gene assay in SW480 colon carcinoma cells
# Assay type: cell-based, human
# Condition label: Homo sapiens, 36 to 48 hours
Items are presented alongside their recorded pEC50.
Scale: pEC50 equals -log10([C]), with [C] in mol/L.

Answered examples (5):
| Compound string | Study system | pEC50 |
| --- | --- | --- |
| C[C@H](NC(=O)c1n[nH]c2ccc(-c3cnn(C)c3)cc12)C(F)(F)F | Wnt activity (Sp5-Luc reporter in SW480 cells) | 5.42 |
| O=C(Nc1ccc(N2CCCC2)nc1)c1n[nH]c2cc(F)c(-c3cnn(C4CCNCC4)c3)cc12 | Wnt activity (Sp5-Luc reporter in SW480 cells) | 6.10 |
| CN1CCN(Cc2ccc(NC(=O)c3n[nH]c4cc(F)c(-c5cnn(C)c5)cc34)cc2)CC1 | Wnt activity (Sp5-Luc reporter in SW480 cells) | 6.60 |
| Cn1cc(-c2ccc3[nH]nc(C(=O)NC45CC6CC(CC(C6)C4)C5)c3c2)cn1 | Wnt activity (Sp5-Luc reporter in SW480 cells) | 5.37 |
| CC(C)CNC(=O)c1n[nH]c2ccc(-c3cn[nH]c3)cc12 | Wnt activity (Sp5-Luc reporter in SW480 cells) | 6.45 |

Task: Quick one: pEC50 of CN1CCC(c2ccc(NC(=O)c3n[nH]c4cc(F)c(-c5cnn(C)c5)cc34)cc2)CC1 ?
Result: 6.09

Task: Again, but for Cc1ncc(NC(=O)c2n[nH]c3ccc(-c4cnn(C5CCNCC5)c4)cc23)s1
Result: 6.57

----------
# System: Wnt activity (Sp5-Luc reporter in SW480 cells)
# Protocol description: Screening assay for Wnt activity: Sp5-Luc reporter gene assay in SW480 colon carcinoma cells
# Assay type: cell-based, human
# Condition label: Homo sapiens, 36 to 48 hours
Measured quantity: pEC50
Scale: pEC50 equals -log10([C]), with [C] in mol/L.

Task: Quick one: pEC50 of CN1Cc2ccc(NC(=O)c3n[nH]c4cc(F)c(-c5cnn(C)c5)cc34)cc2C1 ?
Result: 6.25

Task: Again, but for O=C(Nc1ccc(OC(F)F)cc1)c1n[nH]c2ccc(-c3cnn(C4CCNCC4F)c3)cc12 (centres unmarked)
Result: 5.96

Task: Again, but for Cn1cc(-c2ccc3[nH]nc(C(=O)Nc4ccc(CN5CCCC5)cc4O)c3c2)cn1
Result: 5.66

Task: Again, but for CN1CCC(n2cc(-c3ccc4[nH]nc(C(=O)Nc5cnn(C)c5)c4c3)cn2)CC1
Result: 6.89

Task: Again, but for CN1CCN(c2ccc(NC(=O)c3n[nH]c4cc(F)c(-c5cnn(C)c5)cc34)cn2)CC1
Result: 6.76

Task: Again, but for Cc1cc(NC(=O)c2n[nH]c3ccc(-c4cnn(C5CCN(C)CC5)c4)cc23)sn1
Result: 7.05

Task: Again, but for CN1CCC(n2cc(-c3cc4c(C(=O)Nc5ccc(F)cc5)n[nH]c4cc3F)cn2)CC1
Result: 6.25

----------
Items are presented alongside their recorded log10(IC50).
# Study system: GSK3β kinase (Homo sapiens (Human), UniProt P49841)
# Sequence (P49841 whole entry): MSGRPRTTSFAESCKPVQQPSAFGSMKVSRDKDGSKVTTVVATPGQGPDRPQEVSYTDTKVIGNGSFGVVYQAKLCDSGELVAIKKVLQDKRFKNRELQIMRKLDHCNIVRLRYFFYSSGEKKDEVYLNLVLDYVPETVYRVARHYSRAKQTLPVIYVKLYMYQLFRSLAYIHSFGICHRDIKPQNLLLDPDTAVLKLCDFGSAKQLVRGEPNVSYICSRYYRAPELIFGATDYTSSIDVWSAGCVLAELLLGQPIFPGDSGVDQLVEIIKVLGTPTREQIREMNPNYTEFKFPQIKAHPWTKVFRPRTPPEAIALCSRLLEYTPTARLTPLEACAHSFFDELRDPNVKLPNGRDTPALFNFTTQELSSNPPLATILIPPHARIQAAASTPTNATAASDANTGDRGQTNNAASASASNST
# Protocol description: GSK3β kinase assay (Ser/Thr 09 peptide Z-lyte FRET)
# Type: biochemical
# Condition label: read-out: EC50 (method: IC50)
Plainly stated, the numbers are log10 of IC50 given in nM.

Task: Quick one: log10(IC50) of Cn1cc(-c2cc3c(C(=O)N[C@H]4CC[C@H](CN5CC(F)C5)CC4)n[nH]c3cc2F)cn1 ?
Result: 1.34

Task: Again, but for CN1CCN(Cc2ccc(NC(=O)c3n[nH]c4cc(F)c(-c5cnn(C)c5)cc34)cc2)CC1
Result: 1.26

Task: Again, but for Cn1cc(-c2cc3c(C(=O)Nc4ccc(CN5CCC(F)(F)CC5)cc4)n[nH]c3cc2F)cn1
Result: 2.48

Task: Again, but for CC(C)NC(=O)c1n[nH]c2ccc(-c3cnn(C4CCNCC4)c3)cc12
Result: 2.41

Task: Again, but for CN1CCC(n2cc(-c3ccc4[nH]nc(C(=O)Nc5cncc(F)c5)c4c3)cn2)CC1
Result: 2.44

Task: Again, but for Cc1coc(NC(=O)c2n[nH]c3cc(F)c(-c4cnn(C5CCN(C)CC5)c4)cc23)n1
Result: 2.29

Task: Again, but for CCn1cc(-c2ccc3[nH]nc(C(=O)NC4CCC(F)(F)CC4)c3c2)cn1
Result: 1.78

Task: Again, but for CC(C)CNC(=O)c1n[nH]c2ccc(-c3cn[nH]c3)cc12
Result: 1.45

Task: Again, but for Cc1ncc(-c2ccc3[nH]nc(C(=O)Nc4ccc(OC5CCN(C)CC5)cc4)c3c2)n1C
Result: 2.08

Task: Again, but for Cn1cc(-c2ccc3[nH]nc(C(=O)NC4CCC(F)(F)CC4)c3c2)cn1
Result: 1.36

Task: Again, but for Cn1cc(-c2cc(F)c3[nH]nc(C(=O)NC4CCC(F)(F)CC4)c3c2)cn1
Result: 1.61

Task: Again, but for O=C(N[C@H]1CC[C@H](CN2CC(F)C2)CC1)c1n[nH]c2ccc(-c3cnn4c3CCCC4)cc12
Result: 1.08

Task: Again, but for Cn1cc(-c2ccc3[nH]nc(C(=O)Nc4ccc(CN5CCCC5)cc4O)c3c2)cn1
Result: 2.94

Task: Again, but for CCn1cc(-c2ccc3[nH]nc(C(=O)NC4CCN(CC(C)(C)F)CC4)c3c2)cn1
Result: 1.52

Task: Again, but for Cc1cc(-c2ccc3[nH]nc(C(=O)Nc4ccc(OC5CCN(C)CC5)cc4)c3c2)sn1
Result: 1.94

Task: Again, but for O=C(Nc1ccc(OC(F)F)cc1)c1n[nH]c2ccc(-c3cnn(C4CCNCC4F)c3)cc12 (stereo not shown)
Result: 3.73

----------
# System: Wnt activity (Sp5-Luc reporter in SW480 cells)
# Protocol description: Screening assay for Wnt activity: Sp5-Luc reporter gene assay in SW480 colon carcinoma cells
# Format: cell-based, human
# Condition label: Homo sapiens, 36 to 48 hours
Items are presented alongside their recorded log10 EC50.
Plainly stated, the numbers are log10 of EC50 given in µM.

Answered examples (10):
| Compound | Measured quantity | Test result |
| --- | --- | --- |
| Cn1cc(-c2cc3c(C(=O)Nc4cccc(OCCN5CCCC5)c4)n[nH]c3cc2F)cn1 | log10 EC50 | -0.51 |
| Cn1cc(-c2ccc3[nH]nc(C(=O)NC4CCN(CC(C)(C)F)CC4)c3c2)cn1 | log10 EC50 | -0.13 |
| CN1CCN(c2ccc(NC(=O)c3n[nH]c4cc(F)c(-c5cnn(C)c5)cc34)cc2)CC1 | log10 EC50 | -0.02 |
| Cn1cc(-c2ccc3[nH]nc(C(=O)NCCC(F)(F)F)c3c2)cn1 | log10 EC50 | -0.18 |
| CN1CCC(Oc2ccc(NC(=O)c3n[nH]c4c(F)cc(-c5cnn(C)c5)cc34)cn2)CC1 | log10 EC50 | 0.79 |
| Cn1cc(-c2cc3c(C(=O)Nc4cccc(OC5CCNCC5)c4)n[nH]c3cc2F)cn1 | log10 EC50 | -0.61 |
| CN1[C@@H]2CC[C@H]1CC(NC(=O)c1n[nH]c3ccc(-c4cnn(C)c4)cc13)C2 (some centres unmarked) | log10 EC50 | 0.20 |
| Cn1cc(-c2cc3c(C(=O)Nc4ccc(CN5CCOCC5)cc4)n[nH]c3cc2F)cn1 | log10 EC50 | -0.39 |
| Cn1cc(-c2ccc3[nH]nc(C(=O)N[C@H]4CC[C@H](CN5CC(F)C5)CC4)c3c2)cn1 | log10 EC50 | -0.11 |
| Cc1ncc(NC(=O)c2n[nH]c3ccc(-c4cnn(C5CCN(C)CC5)c4)cc23)s1 | log10 EC50 | -1.00 |

// below: log10 EC50 requested for another compound
Task: Quick one: log10 EC50 of Cn1cc(-c2cc(F)c3[nH]nc(C(=O)Nc4ccc(CN5CCCC5)cc4)c3c2)cn1 ?
Result: 0.49

----------
Items are presented alongside their recorded EC50.
# Test system: Wnt activity (Sp5-Luc reporter in SW480 cells)
# Protocol description: Screening assay for Wnt activity: Sp5-Luc reporter gene assay in SW480 colon carcinoma cells
# Type: cell-based, human
# Condition label: Homo sapiens, 36 to 48 hours

Answered examples (7):
| Molecule | EC50 |
| --- | --- |
| CC(C)CN1CC[C@H](NC(=O)c2n[nH]c3c(F)cc(-c4cnn(C)c4)cc23)[C@@H](F)C1 [Compound 35] | 345 nM |
| Cn1cc(-c2cc(Cl)c3[nH]nc(C(=O)NC4CCC(F)(F)CC4)c3c2)cn1 [Compound 17] | > 10000 nM |
| CN1CCN(c2cccc(NC(=O)c3n[nH]c4cc(F)c(-c5cnn(C)c5)cc34)c2)CC1 [Compound 149] | 217 nM |
| CCn1cc(-c2ccc3[nH]nc(C(=O)Nc4ccc(CN5CCCC5)cc4)c3c2)cn1 [Compound 70] | 512 nM |
| CCn1cc(-c2ccc3[nH]nc(C(=O)NC4CCN(CC(C)(C)F)CC4)c3c2)cn1 [Compound 39] | 3880 nM |
| O=C(Nc1ccc(N2CCCC2)nc1)c1n[nH]c2cc(F)c(-c3cnn(C4CC4)c3)cc12 [Compound 92] | 2310 nM |
| Cc1ncc(-c2ccc3[nH]nc(C(=O)N[C@@H]4CCCC[C@H]4F)c3c2)n1C [Compound 13] | > 10000 nM |

// below: EC50 requested for another molecule
Task: Quick one: EC50 of CC(C)CN1CC[C@H](NC(=O)c2n[nH]c3ccc(-c4cn[nH]c4)cc23)[C@@H](F)C1 [Compound 145] ?
Result: 345 nM
